Target: soluble SARS-CoV-2 spike protein variant 4PDS (SARS-CoV-2, UniProt P0DTC2 14-1208)
Field: Fold improvement over WT/WT. Provide a value for each of the binders that follow.
Show the value, then the unit it is measured in.

For reference, reported Fold improvement over WT/WT for combination of unmodified hu3A3 (WT; ven3A3) heavy chain with AM3A3-3 light chain (antibody, V domains shown) VH: QVQLVQSGAEVLKPGASVKLSCKASGFNIKDTYIHWLKQAPGQRLEWIGRIGPAIGNTIYAPKFQGKATITTDTSASTAYLELSSLRSEDTAVYYCARYYGSSYYYFDYWGQGTTVTVSS VL: DIVMTQSPLSVPVTPGEPVSISCRSSKSLHHSNGNTYLYWFLQKPGQSPQLLIYRMSNLASGVPDRFSGSGNGTAFTLKISRVEAEDVGVYYCMQYLEYPLTFDAGTKLEIK stands at 13.7 fold

For reference, reported Fold improvement over WT/WT for AM3A3-5 (affinity matured humanized 3A3) (antibody, V domains shown) VH: QVQLVQSGAEVLKPGASVKLSCKASGFNIKDTYIHWLKQAPGQRLEWIGRIGPAIGNTIYAPKFQGKATITTDTSASTAYLELSSLRSEDTAVYYCARYYGYAYYYFDYWGQGTTVTVSS VL: DIVMTQSPLSVPVTPGEPVSISCRSSKSLLHSNGNTYLYWFLQKPGQSPQLLIARMSTLASGVPDRFSGSGSGTAFTLKISRVEAEDVGVYYCMQYLEYPLTFGAGTKLEIK stands at 50.5 fold

For reference, reported Fold improvement over WT/WT for combination of AM3A3-3 heavy chain with AM3A3-5 light chain (antibody, V domains shown) VH: QVQLVQSGADVLKPGASVKLSCKASGFNIKNTYIHWLKQAPGQRLEWIGRIGPAIGNTIYAPKFQGKATITTDTSASTAYLELSSLRSEDTAVYYCARYYGSSYYYLDYWGQGTTVTVSS VL: DIVMTQSPLSVPVTPGEPVSISCRSSKSLLHSNGNTYLYWFLQKPGQSPQLLIARMSTLASGVPDRFSGSGSGTAFTLKISRVEAEDVGVYYCMQYLEYPLTFGAGTKLEIK stands at 95.6 fold

Provenance of the data: patent US20240294611A1
